Each entry below carries its measured Kd, system: FKBP12 (Homo sapiens).
Sequence (P62942 whole entry, species assumed): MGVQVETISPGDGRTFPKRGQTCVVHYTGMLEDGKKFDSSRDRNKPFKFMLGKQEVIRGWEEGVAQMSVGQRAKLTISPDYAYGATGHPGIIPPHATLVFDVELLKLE

Would you please look over these solved cases?
{"columns": ["molecule", "property-name", "result"],
 "data": [
  ["CO[C@@H]1C[C@H](C[C@@H](C)[C@@H]2CC(=O)[C@H](C)/C=C(\\C)[C@@H](O)[C@@H](OC)C(=O)[C@H](C)C[C@H](C)/C=C/C=C/C=C(\\C)[C@H](OCCc3ccccc3)C[C@@H]3CC[C@@H](C)[C@@](O)(O3)C(=O)C(=O)N3CCCCC3C(=O)O2)CC[C@H]1O (stereo partly drawn)", "Kd", "> 1 nM"],
  ["CO[C@@H]1C[C@H](C[C@@H](C)[C@@H]2CC(=O)[C@H](C)/C=C(\\C)[C@@H](O)[C@@H](OC)C(=O)[C@H](C)C[C@H](C)/C=C/C=C/C=C(\\C)[C@H](OCC3COC3)C[C@@H]3CC[C@@H](C)[C@@](O)(O3)C(=O)C(=O)N3CCCC[C@H]3C(=O)O2)CC[C@H]1OCCO", "Kd", "0.3 to 1 nM"]
]}

Turning now to a further molecule:
Query: Provide value of Kd for this record tested with FKBP12 (Homo sapiens): `CO[C@@H]1C[C@H](C[C@@H](C)[C@@H]2CC(=O)[C@H](C)/C=C(\C)[C@@H](O)[C@@H](OC)C(=O)[C@H](C)C[C@H](C)/C=C/C=C/C=C(\C)[C@@H](OC3CC3)C[C@@H]3CC[C@@H](C)[C@@](O)(O3)C(=O)C(=O)N3CCCC[C@H]3C(=O)O2)CC[C@H]1O`
Response: 0.3 to 1 nM
